Field: pIC50. Provide a value for each of the molecules that follow.
- Test system: 996289-038-R-J1-PDC complex spheroid viability
- assay summary: Anticancer human tumor 996289-038-R-J1-PDC patient-derived colon adenocarcinoma cell line growth inhibition [CLK]
- reported conditions: curve of first compound; second compound 10 µM
pIC50: −log10 of the molar value.

molecule	measured on	pIC50
CC(Nc1ccc2c(c1)OCCn1cc(N3C(=O)OCC3C(F)F)nc1-2)C(N)=O (stereo unspecified) + CNC(=O)c1ccc(Nc2nc(OC3CCCC3)c3c(-c4ccc5nc(C)oc5c4)c[nH]c3n2)c(OC)c1	996289-038-R-J1-PDC complex spheroid viability	> 7.50

Provide each entry's pIC50 from the list below.
1. C=CC(=O)Nc1cc(Nc2nccc(-c3cn(C)c4ccccc34)n2)c(OC)cc1N(C)CCN(C)C + CN1CCN(c2cc(C(=O)Nc3cc4cc(-c5cnn(C)c5)ccc4cn3)ccn2)CC1
2. NC(=O)C(=Cn1cnc(-c2cc(C(F)(F)F)cc(C(F)(F)F)c2)n1)c1cncnc1 + CN1CCN(c2cc(C(=O)Nc3cc4cc(-c5cnn(C)c5)ccc4cn3)ccn2)CC1

Ans:
1. > 9.02
2. > 8.02

###

- System: 996289-038-R-J1-PDC complex spheroid viability
- assay summary: Anticancer human tumor 996289-038-R-J1-PDC cell line growth inhibition [CLK];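 also: spheroids exposed to the agents for 7 days before readout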
- reported conditions: second compound 0.0316 µM; first compound 0.0316 µM; stronger effect = lower value
- Excerpt: A high-throughput screen of multi-cell type tumor spheroids was designed to identify active combinations of […] and targeted small molecules. Complex spheroids include a stromal component modeled by human endothelial cells (HUVEC) and fibroblasts modeled by human mesenchymal stem cells (MSCs). […] Compounds. […] If the clinical Cmax for an agent had not been determined, the highest concentration tested was 10 microM. […]
readout name: viability, T/C (%)
Give bare numbers, in %.

compound	unit of measurement	viability, T/C
COc1ccc([C@@H](O)c2cc(-c3ncnc4cc(N5CCOCC5)ccc34)c(F)cc2Cl)nn1 + CN1CCN(c2cc(C(=O)Nc3cc4cc(-c5cnn(C)c5)ccc4cn3)ccn2)CC1	%	93.2
C#Cc1c(F)ccc2cc(O)cc(-c3ncc4c(N5CC6CCC(C5)N6)nc(OCC56CCCN5CC(F)C6)nc4c3F)c12 (stereo not given) + CN1CCN(c2cc(C(=O)Nc3cc4cc(-c5cnn(C)c5)ccc4cn3)ccn2)CC1	%	102
C=CC(=O)N1CCN(c2nc(=O)n(-c3c(C)ccnc3C(C)C)c3nc(-c4c(O)cccc4F)c(F)cc23)C(C)C1 (stereo not given) + CN1CCN(c2cc(C(=O)Nc3cc4cc(-c5cnn(C)c5)ccc4cn3)ccn2)CC1	%	112
C=CC(=O)N1CCN(c2nc(=O)n(-c3c(C)ccnc3C(C)C)c3nc(-c4c(O)cccc4F)c(F)cc23)C(C)C1 (stereo not given) + CNC(=O)c1ccc(Nc2nc(OC3CCCC3)c3c(-c4ccc5nc(C)oc5c4)c[nH]c3n2)c(OC)c1	%	110

# next compound below
Q: Given CC(CO)NC(=O)c1cc(-c2ccc(Cl)cc2)nn(-c2cnn(C)c2)c1=O (stereo not given) + CNC(=O)c1ccc(Nc2nc(OC3CCCC3)c3c(-c4ccc5nc(C)oc5c4)c[nH]c3n2)c(OC)c1 , state its recorded viability, T/C.
Ans: 117

###

Would you kindly list pIC50 for each of these compounds?
- System: 996289-038-R-J1-PDC complex spheroid viability
- assay summary: Anticancer human tumor 996289-038-R-J1-PDC cell line growth inhibition [CLK];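 also: spheroids exposed to the agents for 7 days before readout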
- reported conditions: curve of first compound; second compound 1 µM
pIC50: −log10 of the molar value.

// known answers, use as guide
compound	pIC50
Nc1ccn(C2OC(CO)C(O)C2(F)F)c(=O)n1 (stereo unspecified) + CNC(=O)c1ccc(Nc2nc(OC3CCCC3)c3c(-c4ccc5nc(C)oc5c4)c[nH]c3n2)c(OC)c1	5.91
CC1COCCN1c1cc(C2(S(C)(=N)=O)CC2)nc(-c2ccnc3[nH]ccc23)n1 (stereo unspecified) + CNC(=O)c1ccc(Nc2nc(OC3CCCC3)c3c(-c4ccc5nc(C)oc5c4)c[nH]c3n2)c(OC)c1	5.44
Cn1ncnc1[C@H]1c2n[nH]c(=O)c3cc(F)cc(c23)N[C@@H]1c1ccc(F)cc1 + CN1CCN(c2cc(C(=O)Nc3cc4cc(-c5cnn(C)c5)ccc4cn3)ccn2)CC1	> 9.50
C=C(F)C(=O)N1CCN(c2nc(OCC3CCCN3C)nc3c2CCN(c2cccc4cccc(Cl)c24)C3)CC1CC#N (stereo unspecified) + CN1CCN(c2cc(C(=O)Nc3cc4cc(-c5cnn(C)c5)ccc4cn3)ccn2)CC1	> 7.50
CC1(C)CCC(CN2CCN(c3ccc(C(=O)NS(=O)(=O)c4ccc(NCC5CCOCC5)c([N+](=O)[O-])c4)c(Oc4cnc5[nH]ccc5c4)c3)CC2)=C(c2ccc(Cl)cc2)C1 + CN1CCN(c2cc(C(=O)Nc3cc4cc(-c5cnn(C)c5)ccc4cn3)ccn2)CC1	> 7.50
CCCS(=O)(=O)Nc1ccc(F)c(C(=O)c2c[nH]c3ncc(-c4ccc(Cl)cc4)cc23)c1F + CNC(=O)c1ccc(Nc2nc(OC3CCCC3)c3c(-c4ccc5nc(C)oc5c4)c[nH]c3n2)c(OC)c1	5.25
C=CC(=O)Nc1cc(Nc2nccc(-c3cn(C)c4ccccc34)n2)c(OC)cc1N(C)CCN(C)C + CN1CCN(c2cc(C(=O)Nc3cc4cc(-c5cnn(C)c5)ccc4cn3)ccn2)CC1	> 9.02
O=c1[nH]cc(F)c(=O)[nH]1 + CNC(=O)c1ccc(Nc2nc(OC3CCCC3)c3c(-c4ccc5nc(C)oc5c4)c[nH]c3n2)c(OC)c1	5.46
COc1c(OCCCN2CCOCC2)ccc2c3n(c(=NC(=O)c4cnc(N)nc4)nc12)CCN3 + CN1CCN(c2cc(C(=O)Nc3cc4cc(-c5cnn(C)c5)ccc4cn3)ccn2)CC1	> 8.50
Nc1ccn(C2OC(CO)C(O)C2(F)F)c(=O)n1 (stereo unspecified) + CN1CCN(c2cc(C(=O)Nc3cc4cc(-c5cnn(C)c5)ccc4cn3)ccn2)CC1	> 7.50

Q: Sample CCN1CCN(Cc2ccc(Nc3ncc(F)c(-c4cc(F)c5nc(C)n(C(C)C)c5c4)n3)nc2)CC1 + CNC(=O)c1ccc(Nc2nc(OC3CCCC3)c3c(-c4ccc5nc(C)oc5c4)c[nH]c3n2)c(OC)c1 — what was its pIC50?
Ans: < 6.00
